TESTED TARGET: AChE (EC 3.1.1.7) from electric eel (Electrophorus electricus)
Construct: AChE (EC 3.1.1.7, Type VI-S, from electric eel, C3389); purchased Sigma-Aldrich C3389; host or cells: electric eel (natural source)
Sequence (O42275 24-633): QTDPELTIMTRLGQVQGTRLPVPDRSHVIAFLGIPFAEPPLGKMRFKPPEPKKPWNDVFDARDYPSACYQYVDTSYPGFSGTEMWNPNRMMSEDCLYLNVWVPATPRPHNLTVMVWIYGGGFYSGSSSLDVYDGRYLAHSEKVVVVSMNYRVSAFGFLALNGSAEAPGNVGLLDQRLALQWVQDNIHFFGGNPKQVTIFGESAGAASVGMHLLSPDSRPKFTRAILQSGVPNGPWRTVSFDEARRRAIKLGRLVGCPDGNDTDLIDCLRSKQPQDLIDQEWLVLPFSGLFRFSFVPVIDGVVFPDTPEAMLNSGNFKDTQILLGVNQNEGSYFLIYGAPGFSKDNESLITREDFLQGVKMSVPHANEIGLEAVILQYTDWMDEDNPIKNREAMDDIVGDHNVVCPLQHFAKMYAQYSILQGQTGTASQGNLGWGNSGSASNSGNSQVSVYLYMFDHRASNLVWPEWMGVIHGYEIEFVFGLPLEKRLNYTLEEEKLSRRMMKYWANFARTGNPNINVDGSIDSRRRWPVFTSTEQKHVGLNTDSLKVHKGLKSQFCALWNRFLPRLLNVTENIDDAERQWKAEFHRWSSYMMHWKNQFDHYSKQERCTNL
PROCEDURE TEXT: biochemical
CONDITION DETAILS: eeAChE IC50 / eqBuChE IC50
MEASURED PARAMETER: SI (selectivity index, AChE IC50/BuChE IC50)
Write the number on its own, no unit after it.

Incoming: Reported SI (selectivity index, AChE IC50/BuChE IC50) for COc1cc(/C=C/C(=O)NCCNc2c3c(nc4ccccc24)CCCC3)ccc1OCc1ccc(F)cc1 [Compound 10b] : what is it?
Outgoing: 0.7

---
Incoming: Reported SI (selectivity index, AChE IC50/BuChE IC50) for COc1cc(/C=C/C(=O)NCCNc2c3c(nc4ccccc24)CCCC3)ccc1OCc1ccccc1C [Compound 10e] : what is it?
Outgoing: 0.7

Incoming: Reported SI (selectivity index, AChE IC50/BuChE IC50) for COc1cc(/C=C/C(=O)NCCNc2c3c(nc4ccccc24)CCCC3)ccc1OCc1ccccc1 [Compound 10a] : what is it?
Outgoing: 0.4

Incoming: Reported SI (selectivity index, AChE IC50/BuChE IC50) for COc1cc(/C=C/C(=O)NCCNc2c3c(nc4ccccc24)CCCC3)ccc1OCc1ccc(C)cc1 [Compound 10h] : what is it?
Outgoing: 0.9

Incoming: Reported SI (selectivity index, AChE IC50/BuChE IC50) for COc1cc(/C=C/C(=O)NCCNc2c3c(nc4ccccc24)CCCC3)ccc1OCc1ccc(C)c(C)c1 [Compound 10g] : what is it?
Outgoing: 0.4

The measurements presented in this section are drawn from paper PMC6010002.
